- targetUnderTest: T1, MQDWLTFQKKHI
- T1 chain: MQDWLTFQKKHI
quantity: Specific activity (unit/mg)

INSERT INTO results (protein, unitannotation, endpointresult) VALUES
  ('MetAP-M206G-Q233G (protein) AISIKTPEDIEKMRVAGRLAAEVLEMIEPYVKPGVSTGELDRICNDYIVNEQHAVSACLGYHGYPKSVCISINEVVCHGIPDDAKLLKDGDIVNIDVTVIKDGFHGDTSKMFIVGKPTIMGERLCRITQESLYLALRMVKPGINLREIGAAIQKFVEAEGFSVVREYCGHGIGRGFHEEPQVLHYDSRETNVVLKPGMTFTIEPGVNAGKKEIRTMKDGWTVKTKDRSLSAGYEHTIVVTDNGCEILTLRKDDTIPAIISHDE', 'unit/mg', 0.5);
